Biological target: ligand binding domain of human RORγ (A262-S507) (Homo sapiens, UniProt P51449)
Construct: made in house; host or cells: E. coli
Sequence (P51449 262-507): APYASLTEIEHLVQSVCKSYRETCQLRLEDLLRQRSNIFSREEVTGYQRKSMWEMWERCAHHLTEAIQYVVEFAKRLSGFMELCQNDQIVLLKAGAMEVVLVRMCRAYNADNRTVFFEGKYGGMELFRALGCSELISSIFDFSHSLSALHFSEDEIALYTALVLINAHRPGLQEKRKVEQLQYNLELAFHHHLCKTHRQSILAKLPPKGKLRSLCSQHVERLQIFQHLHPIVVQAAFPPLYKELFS
Assay: General RORγ SPA binding assay (competition with [3H]25-hydroxycholesterol)
Details: RORγ SPA binding assay, inhibition of [3H]25-hydroxycholesterol binding; read-out: IC50
Experimental: Example 2 General RORγ SPA Binding Assay The binding of potential ligands to RORγ is measured by competition with [^3H]25-hydroxycholesterol using a scintillation proximity assay (SPA) binding assay. […] The reaction is read on a MicroBeta Trilux scintillation plate reader (Perkin Elmer). IC50 values are determined from the percentage inhibition of [^3H]25-hydroxycholesterol binding.
PARAMETER: IC50 (nM)

For orientation, consider the following solved cases.
Cc1nc(C)c(-c2nnc(-c3ccnc(C(F)(F)F)n3)o2)c(C2CCN(C(=O)Nc3c(F)cccc3C(F)(F)F)CC2)n1 [Compound C40] : 47.5
C/C(=N/Oc1cc(Cl)nc(C(F)(F)F)c1)c1cnc(C)nc1C1CCN(C(=O)Nc2c(F)cccc2F)CC1 [Compound B41] : 12.6
Cc1nc(C)c(C(O)COc2ccnc(C(F)(F)F)n2)c(C2CCN(C(=O)Nc3c(F)cccc3F)CC2)n1 (centres unmarked) [Compound N5] : 8.4

1: CCn1c(C)nc(C2CCN(C(=O)Cc3c(F)cccc3F)CC2)c(C(=O)NCc2cccc(C(F)(F)F)n2)c1=O [Compound I8]
2: CC(=O)N1CCC(NC(COc2cccc(C(F)(F)F)n2)c2cnc(C)nc2C2CCN(C(=O)Nc3c(F)cccc3F)CC2)CC1 (centres unmarked) [Compound N28]
Query :: Of 1 and 2 , whose reported IC50 is numerically smaller? Reply with the label of the item you choose.
Result :: 2
